Origin of the recorded values: patent US6218398A

System: Enterococcus faecium strain A28152
test-protocol: antibiotic susceptibility of the MREF strain
Format: cell-based
test-conditions: strain description; source not stated
readout: resistance/sensitivity of E. faecium strain A28152 to the antibiotic

CCC[C@@H]1C[C@@H](C(=O)N[C@@H]([C@H]2O[C@H](SC)[C@H](O)[C@@H](O)[C@H]2O)[C@H](C)Cl)N(C)C1    resistant
CC[C@H]1OC(=O)[C@H](C)[C@@H](O[C@H]2C[C@@](C)(OC)[C@@H](O)[C@H](C)O2)[C@H](C)[C@@H](O[C@@H]2O[C@H](C)C[C@H](N(C)C)[C@H]2O)[C@](C)(O)C[C@@H](C)C(=O)[C@H](C)[C@@H](O)[C@]1(C)O    resistant
CC1(C)S[C@@H]2[C@H](NC(=O)Cc3ccccc3)C(=O)N2[C@H]1C(=O)O    resistant
[H]/N=C(/N)N[C@H]1[C@H](O)[C@@H](O)[C@H](O[C@@H]2O[C@@H](C)[C@](O)(C=O)[C@H]2O[C@@H]2O[C@@H](CO)[C@H](O)[C@@H](O)[C@@H]2NC)[C@@H](N/C(N)=N\[H])[C@@H]1O    resistant
